# test.system: pooled human IgG (human IgG1,2,3 and 4)
Property: Enzyme Activity Endpoint Assay (purified): Fab′2; scope: individual proteins
Answer with the number, then the unit.

PRT-346 (protein) MSQTEDSESLQRLRDIEDFQAEKEMQNVVYTKWLDGVDVKDHDFRKIVDGNSAYYATPLLNGRGFYDINKDFNRDSDKCAAAVAANMFHYWLDINRDNVDRFLRQNPEKHGIIELPDGQLKLSDFLNTYESDHGYRDKSKLFDFISNNFNGPVWTDKLLDNYINGYAYNYKYGRTIEDPTKNTSKINFFKEVFNEKILTNNHSIRNQNEFSVLLSEALYTGKAIGLSYGPAGLRHSLGHIISVWGADLDADGNVVAIYVTDSDDKKLTIGDERVGLKRYKISTDDENRLRLTAYEETHNTGGQVRGLWTLDTGKYAWADYFDKTEQTGTDQAEQ	607 ng/µL
PRT-485 (protein) MVTSVWTKGVTPPANFTQGEDVFHAPYKANQGWYDITKTFNGKDNLLCGAATAGNMLHWWFDQNKDQIEAYLKEHPEKQKIIFNNQELFDLKAAIDTKDDQTNSKLFEYFKEKAFPYLSTKHLGVFPDHVLDMFINGYRLSLTNHGPTPVKEGSKDKRGGIFDAVFTRGVQSKLLTSRHDLKNKTLKEISDLIKQELTEGKALALSHTYANVRINHVINLWGADFDSNGNLEAIYVTDSDTNASIGMKKYFVGVNSAGKVAISAKEIEDDNIGAQVLGLFTLSTGQDIWNQTNLEHHHHHH	0 ng/µL
PRT-371 (protein) MSQTEDSESLQRLRDIEDFQAEKKKQNVVYTKWLDGVDVKDHDFRKIVDGNSAYYATPLLNGRGFYDINKDFNRDNDKCAAAVAANMFHYWLDRNRDNVDRFLRQNPEKHGIIELPDGQLKLSDFLNTYESDDGYRDKSKLFDFISENFNGPVWTDKLLDNYINGYAYNYKYGRTIEDSTKNTSKINFFKEVFNEKILTNNHSIRNQNEFSVLLIEALYTGKAIGLSYGPAGLRHSLGHIISVWGADLDADGNVVAIYVTDSDDKKLTIGDERVGLKRYKISTDDEGRLRLTAYEETHNTGGQIRGLWTLDTGKQAWADYFDKTEQTGTDQAEQ	623 ng/µL
PRT-341 (protein) MTITSVWTKGVTPPTPEDFRENNEDVLHAPYLANQGWYDITKAFDGKDNLLCGAATAGNMLHWWFDQNKEEIERYLKKHPEKQKIIFNNQEWFDVKAAIDTKDSQTNSKLFNYFRDKAFPNLSARQLGVMPDLVLDMFINGYYLNLPKTQSTDVNRPYQDKDKRGGIFDAVFTRGDQTTLLTARHDLKNKGLNEISDLIKQELTEGKALALSHTYANVSINHVINLWGADFDAEGNLEAIYVTDSDANASIGMKKYAVGVNAHGKVAISAKKIEGDNIGAQVLGLFTLSTGQDIWQKLS	832 ng/µL
PRT-507 (protein) MITSVWTKGVTPPTDFIKGEDVFHAPYKAGQGWYDITKAFDGGDDLLCGAATAGNMLHWWFDQNKEEIEAYLKKHPEKQKIMFGDQELLDVRKVINTKDSQTNSALFNYFKDKAFPNLSARRLGVMPDLVLDMFINGYYLNVYKTQTTDVNRTYQTKDRRGGIFDAVFTRGDQSKLLTERHDFKEKTLKEISDLIKQELTEGKALGLSHTYANVRINHVINLWGADFDSNGNLEAIYVTDSDSNASIGMKKYFVGVNSAGKVAISAKEIKEDNIGAQVLGLFTLSTGQDIWNQTNLEHHHHHH	927 ng/µL
PRT-348 (protein) MSQTEDSESLQRLRDIEDFQAEKKDQNVVYTKWLDGVDVKDHDFRKIVDGNIAYYATPLLNGRGWYDINKDFNRDSDKCAAAVAANMFHYWLDINRDNVDRFLRQNPEKHGIIELPDGQLKLSDFLNTYESDHGYRDKSKLFDFISENFNGPVWTDKLLDNYINGYAYNYKYGRTIEDPTKNTSKINFFKEVFNEKILTNNHSIRNQNEFSVLLIEALYTGKAIGLSYGPAGLRHSLGHIISVWGADLDADGNVVAIYVTDSDDKKLTIGDERVGLKRYKISTDDENRLRLTAYEETHNTGGQVRGLWTLDTGKYAWADYFDKTEQTGTDQAEQ	736 ng/µL

Data request: What does the record list as Enzyme Activity Endpoint Assay (purified): Fab′2 for PRT-355 (protein) MSQTEDSESLQRLRDIEDFQAEKKMQNVVYTKWLDGVDVKDHDFRKIVDGNEAYYATPLLNGRGFYDINKDFNRDSDKCAAAVAANMFHYWLDINRDNVDRFLRQNPEKHGIIELPDGQLKLSDFLNTYESDHGYRDKSKLFDFISENFNGPVWTDKLLDNYINGYAYNYKYGRLIEDPTKNTSKINFFKEVFNEKILTNNHSIRNQNELSVLLSEALYTGKAIGLSYGPAGTRHSLGHIISVWGADLDADGNVVAIYVTDSDDKKLTIGDERVGLKRYKISTDDENRLRLTAYEETHNTGGQIRGLWTLDTGKYAWADYFDKTEQTGTDQAEQ ?
Data returned: 952 ng/µL

Data request: What does the record list as Enzyme Activity Endpoint Assay (purified): Fab′2 for PRT-360 (protein) MSQTEDSESLQRLRDIEDFQAEKKDQNVVYTKWLDGVDVKDHDFRKIVDGNSAYYATPLLNGRGWYDINKDFNRDSDKCAAAVAANMFHYWLDRNRDNVDRFLRQNPEKHGIIELPDGQLKLSDFLNTYESDDGYRDKSKLFDFISENFNGPVWTDKLLDNYINGYAYNYKYGRTIEDPTKNTSKINFFKEVFNEKILTNNHSIRNQNEFSVLLIEALYTGKAIGLSYGPAGLRHSLGHIISVWGADLDADGNVVAIYVTDSDDKKLTIGDERVGLKRYKISTDDEGRLRLTAYEETHNTGGQVRGLWTLDTGKQAWADYFDKTEQTGTDQAEQ ?
Data returned: 89 ng/µL
